test: Stability of 5 % vitamin C solutions in eutectic solvents versus water; format: physicochemical; settings: water, aqueous solution, 40 degrees, after 16 weeks, read-out: initial vitamin C still measurable
readout_type: remaining at 2688 h

Enquiry: // query remaining at 2688 h value for entry `O=C1O[C@H]([C@@H](O)CO)C(O)=C1O`
Return: 10%

---

assay: Solubility of actives in water and in eutectic solvents; assay type: physicochemical; settings: water; read-out: Solubility in Water
Recorded solubility values for a group of compounds are listed next.
Provide only the numeric value, understood in µg/mL.

>>> result_number("CC(C)C(=O)Nc1nc(-c2ccc(O)cc2O)cs1")
170

Enquiry: Look at this compound and give its reported solubility. `Nc1nc2ncc(CNc3ccc(C(=O)N[C@@H](CCC(=O)O)C(=O)O)cc3)nc2c(=O)[nH]1`
Return: 1.6

---

assay: Stability of 5 % vitamin C solutions in eutectic solvents versus water; assay type: physicochemical; conditions: in the eutectic solvents (table 1, B-F), 40 degrees, after 16 weeks, read-out: active still intact
readout_type: remaining at 2688 h

Enquiry: Using the record for `O=C1O[C@H]([C@@H](O)CO)C(O)=C1O` , report its remaining at 2688 h.
Return: ≤ 82%
